- measurement-setup: in propylene glycol, 283.15 K
recorded-metric: solubility (mole fraction)
No unit in the answer, please; the number alone is enough.

input: I am curious: what solubility (mole fraction) value has been reported for `COc1c(C)c2c(c(O)c1C/C=C(\C)CCC(=O)OCCN1CCOCC1)C(=O)OC2` ?
output: 0.000486

---

- measurement-setup: in water, 278.15 K
recorded-metric: solubility (mole fraction)
No unit in the answer, please; the number alone is enough.

input: I am curious: what solubility (mole fraction) value has been reported for `COc1c(C)c2c(c(O)c1C/C=C(\C)CCC(=O)OCCN1CCOCC1)C(=O)OC2` ?
output: 2.62e-07

---

- measurement-setup: in isopropanol, 288.15 K
recorded-metric: solubility (mole fraction)
No unit in the answer, please; the number alone is enough.

input: I am curious: what solubility (mole fraction) value has been reported for `COc1c(C)c2c(c(O)c1C/C=C(\C)CCC(=O)OCCN1CCOCC1)C(=O)OC2` ?
output: 0.00664

---

- measurement-setup: in ethanol, 288.15 K
recorded-metric: solubility (mole fraction)
No unit in the answer, please; the number alone is enough.

input: I am curious: what solubility (mole fraction) value has been reported for `COc1c(C)c2c(c(O)c1C/C=C(\C)CCC(=O)OCCN1CCOCC1)C(=O)OC2` ?
output: 0.00449

---

- measurement-setup: in isopropanol, 283.15 K
recorded-metric: solubility (mole fraction)
No unit in the answer, please; the number alone is enough.

input: I am curious: what solubility (mole fraction) value has been reported for `COc1c(C)c2c(c(O)c1C/C=C(\C)CCC(=O)OCCN1CCOCC1)C(=O)OC2` ?
output: 0.00592

---

- measurement-setup: in propylene glycol, 278.15 K
recorded-metric: solubility (mole fraction)
No unit in the answer, please; the number alone is enough.

input: I am curious: what solubility (mole fraction) value has been reported for `COc1c(C)c2c(c(O)c1C/C=C(\C)CCC(=O)OCCN1CCOCC1)C(=O)OC2` ?
output: 0.000349

---

- measurement-setup: in isopropanol, 313.15 K
recorded-metric: solubility (mole fraction)
No unit in the answer, please; the number alone is enough.

input: I am curious: what solubility (mole fraction) value has been reported for `COc1c(C)c2c(c(O)c1C/C=C(\C)CCC(=O)OCCN1CCOCC1)C(=O)OC2` ?
output: 0.011

---

- measurement-setup: in isopropanol, 303.15 K
recorded-metric: solubility (mole fraction)
No unit in the answer, please; the number alone is enough.

input: I am curious: what solubility (mole fraction) value has been reported for `COc1c(C)c2c(c(O)c1C/C=C(\C)CCC(=O)OCCN1CCOCC1)C(=O)OC2` ?
output: 0.0091

---

- measurement-setup: in DMSO, 298.15 K
recorded-metric: solubility (mole fraction)
No unit in the answer, please; the number alone is enough.

input: I am curious: what solubility (mole fraction) value has been reported for `COc1c(C)c2c(c(O)c1C/C=C(\C)CCC(=O)OCCN1CCOCC1)C(=O)OC2` ?
output: 0.0214

---

- measurement-setup: in ethanol, 278.15 K
recorded-metric: solubility (mole fraction)
No unit in the answer, please; the number alone is enough.

input: I am curious: what solubility (mole fraction) value has been reported for `COc1c(C)c2c(c(O)c1C/C=C(\C)CCC(=O)OCCN1CCOCC1)C(=O)OC2` ?
output: 0.00352

---

- measurement-setup: in propylene glycol, 318.15 K
recorded-metric: solubility (mole fraction)

input: I am curious: what solubility (mole fraction) value has been reported for `COc1c(C)c2c(c(O)c1C/C=C(\C)CCC(=O)OCCN1CCOCC1)C(=O)OC2` ?
output: 0.00199

---

- measurement-setup: in DMSO, 308.15 K
recorded-metric: solubility (mole fraction)
No unit in the answer, please; the number alone is enough.

input: I am curious: what solubility (mole fraction) value has been reported for `COc1c(C)c2c(c(O)c1C/C=C(\C)CCC(=O)OCCN1CCOCC1)C(=O)OC2` ?
output: 0.0322

---

- measurement-setup: in isopropanol, 308.15 K
recorded-metric: solubility (mole fraction)
No unit in the answer, please; the number alone is enough.

input: I am curious: what solubility (mole fraction) value has been reported for `COc1c(C)c2c(c(O)c1C/C=C(\C)CCC(=O)OCCN1CCOCC1)C(=O)OC2` ?
output: 0.00998

---

- measurement-setup: in DMSO, 303.15 K
recorded-metric: solubility (mole fraction)
No unit in the answer, please; the number alone is enough.

input: I am curious: what solubility (mole fraction) value has been reported for `COc1c(C)c2c(c(O)c1C/C=C(\C)CCC(=O)OCCN1CCOCC1)C(=O)OC2` ?
output: 0.0263

---

- measurement-setup: in DMSO, 313.15 K
recorded-metric: solubility (mole fraction)

input: I am curious: what solubility (mole fraction) value has been reported for `COc1c(C)c2c(c(O)c1C/C=C(\C)CCC(=O)OCCN1CCOCC1)C(=O)OC2` ?
output: 0.0389

---

- measurement-setup: in water, 288.15 K
recorded-metric: solubility (mole fraction)
No unit in the answer, please; the number alone is enough.

input: I am curious: what solubility (mole fraction) value has been reported for `COc1c(C)c2c(c(O)c1C/C=C(\C)CCC(=O)OCCN1CCOCC1)C(=O)OC2` ?
output: 6.62e-07

---

- measurement-setup: in propylene glycol, 288.15 K
recorded-metric: solubility (mole fraction)
No unit in the answer, please; the number alone is enough.

input: I am curious: what solubility (mole fraction) value has been reported for `COc1c(C)c2c(c(O)c1C/C=C(\C)CCC(=O)OCCN1CCOCC1)C(=O)OC2` ?
output: 0.000633

---

- measurement-setup: in water, 303.15 K
recorded-metric: solubility (mole fraction)

input: I am curious: what solubility (mole fraction) value has been reported for `COc1c(C)c2c(c(O)c1C/C=C(\C)CCC(=O)OCCN1CCOCC1)C(=O)OC2` ?
output: 2.12e-06

---

- measurement-setup: in ethanol, 298.15 K
recorded-metric: solubility (mole fraction)
No unit in the answer, please; the number alone is enough.

input: I am curious: what solubility (mole fraction) value has been reported for `COc1c(C)c2c(c(O)c1C/C=C(\C)CCC(=O)OCCN1CCOCC1)C(=O)OC2` ?
output: 0.00581

---

- measurement-setup: in ethanol, 308.15 K
recorded-metric: solubility (mole fraction)
No unit in the answer, please; the number alone is enough.

input: I am curious: what solubility (mole fraction) value has been reported for `COc1c(C)c2c(c(O)c1C/C=C(\C)CCC(=O)OCCN1CCOCC1)C(=O)OC2` ?
output: 0.00749

---

- measurement-setup: in isopropanol, 293.15 K
recorded-metric: solubility (mole fraction)
No unit in the answer, please; the number alone is enough.

input: I am curious: what solubility (mole fraction) value has been reported for `COc1c(C)c2c(c(O)c1C/C=C(\C)CCC(=O)OCCN1CCOCC1)C(=O)OC2` ?
output: 0.00732

---

- measurement-setup: in water, 313.15 K
recorded-metric: solubility (mole fraction)
No unit in the answer, please; the number alone is enough.

input: I am curious: what solubility (mole fraction) value has been reported for `COc1c(C)c2c(c(O)c1C/C=C(\C)CCC(=O)OCCN1CCOCC1)C(=O)OC2` ?
output: 3.68e-06

---

- measurement-setup: in DMSO, 318.15 K
recorded-metric: solubility (mole fraction)

input: I am curious: what solubility (mole fraction) value has been reported for `COc1c(C)c2c(c(O)c1C/C=C(\C)CCC(=O)OCCN1CCOCC1)C(=O)OC2` ?
output: 0.046

---

- measurement-setup: in propylene glycol, 313.15 K
recorded-metric: solubility (mole fraction)
No unit in the answer, please; the number alone is enough.

input: I am curious: what solubility (mole fraction) value has been reported for `COc1c(C)c2c(c(O)c1C/C=C(\C)CCC(=O)OCCN1CCOCC1)C(=O)OC2` ?
output: 0.00172

---

- measurement-setup: in propylene glycol, 303.15 K
recorded-metric: solubility (mole fraction)
No unit in the answer, please; the number alone is enough.

input: I am curious: what solubility (mole fraction) value has been reported for `COc1c(C)c2c(c(O)c1C/C=C(\C)CCC(=O)OCCN1CCOCC1)C(=O)OC2` ?
output: 0.00122

---

- measurement-setup: in water, 318.15 K
recorded-metric: solubility (mole fraction)
No unit in the answer, please; the number alone is enough.

input: I am curious: what solubility (mole fraction) value has been reported for `COc1c(C)c2c(c(O)c1C/C=C(\C)CCC(=O)OCCN1CCOCC1)C(=O)OC2` ?
output: 4.51e-06

---

- measurement-setup: in ethanol, 313.15 K
recorded-metric: solubility (mole fraction)
No unit in the answer, please; the number alone is enough.

input: I am curious: what solubility (mole fraction) value has been reported for `COc1c(C)c2c(c(O)c1C/C=C(\C)CCC(=O)OCCN1CCOCC1)C(=O)OC2` ?
output: 0.00847
